Recorded pEC50 by entry
Target: T1, human SLC34A2 (human, UniProt O95436 1-690)
T1 construct: whole, on cells; also called human solute carrier 34 A2; NaPi2b
T1 sequence (looked up): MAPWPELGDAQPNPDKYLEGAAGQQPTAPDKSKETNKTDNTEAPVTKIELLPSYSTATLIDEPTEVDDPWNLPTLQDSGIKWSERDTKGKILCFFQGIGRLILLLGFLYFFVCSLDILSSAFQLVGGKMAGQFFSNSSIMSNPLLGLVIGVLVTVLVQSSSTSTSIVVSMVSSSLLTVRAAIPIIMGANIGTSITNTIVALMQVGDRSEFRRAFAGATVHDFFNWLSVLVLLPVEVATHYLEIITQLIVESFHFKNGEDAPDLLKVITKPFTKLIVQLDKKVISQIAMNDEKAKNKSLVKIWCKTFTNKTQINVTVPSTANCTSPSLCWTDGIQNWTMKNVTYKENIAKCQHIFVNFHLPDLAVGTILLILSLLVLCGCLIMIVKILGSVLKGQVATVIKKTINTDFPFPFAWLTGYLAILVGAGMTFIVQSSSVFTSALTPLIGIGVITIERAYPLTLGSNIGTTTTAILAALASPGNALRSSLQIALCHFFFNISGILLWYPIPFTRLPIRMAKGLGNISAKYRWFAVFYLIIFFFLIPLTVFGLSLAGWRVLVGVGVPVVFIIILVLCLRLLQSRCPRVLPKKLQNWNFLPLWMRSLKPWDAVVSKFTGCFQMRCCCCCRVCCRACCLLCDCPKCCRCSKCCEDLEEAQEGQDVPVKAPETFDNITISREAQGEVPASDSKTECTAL
Experiment: FACS, OVCAR3 cells
pEC50: −log10 of the molar value.
propertyName: pEC50

[[record]]
binder = "91C9F1.p1.z8 hIgG1 (antibody, V domains shown, humanized hIgG1) VH: QVQLVQSGAEVKKPGSSVKVSCKTSGFFFTEYIIHWVRQAPGQGLEWIGGIIPNNDVTNYKQNFRGRVTLTADKSTSTAYMELSSLRSEDTAVYYCARWRNAYYSAMDSWGQGTTVTVSS VL: DIVVTQSPSSLSTSVGDRVTITCTASQDVGTAVAWYQQKPGKSPKLLIYWASTRHTGVPERFTGSGSGTDFTLTISSVQPEDVATYFCQQYRTSPLTFGVGTKLELK"
propertyname = "pEC50"
obsvalue = 8.67

[[record]]
binder = "91C9F1.p1.z3 hIgG1 (antibody, V domains shown, humanized hIgG1) VH: QVQLVQSGAEVKKPGSSVKVSCKASGFFFTEYIIHWVRQAPGQGLEWMGGIIPNNDVTNYKQNFRGRVTITADESTSTAYMELSSLRSEDTAVYYCARWRNAYYSAMDSWGQGTTVTVSS VL: DIQVTQSPSSLSTSVGDRVTITCTASQDVGTAVAWYQQKPGKSPKLLIYWASTRHTGVPERFTGSGSGTDFTLTISSVQPEDVATYFCQQYRTSPLTFGVGTKVEIK"
propertyname = "pEC50"
obsvalue = 8.39


FYI, the data here is from patent US20240301052A1.
